Recorded Max values for a group of compounds are listed next.
# target-of-assay: Alpha-1B adrenergic receptor (Homo sapiens)
# method: Activation of human alpha-1B-adrenoceptor receptors expressed in rat-1 fibroblasts as percent maximal effect relative to phenylephrine
# Assay type: functional
Write the number in % without appending the unit.

These solved cases illustrate the format of a correct answer.
c1ccc(-c2ccno2)c(OCC2=NCCN2)c1 :: 81
CCCNC(=O)c1ccccc1NCc1c[nH]cn1 :: 89
CSc1ccccc1NCc1c[nH]cn1 :: 78

Now let's try a different one.
Max on Alpha-1B adrenergic receptor (Homo sapiens) for CSc1ccccc1NCC1=NCCN1 is 105

----------
# method: Acid dissociation constant for the compound was determined
# Format: ADME
Entries and their pKa
Form field (numeric): enter value without unit.

CSc1ccccc1NCc1cnc[nH]1 :: 6.5

Now look at this one.
The reported pKa of the compound CSc1ccccc1NCC1=NCCN1 was 10.3

----------
# target-of-assay: Alpha-1D adrenergic receptor (Homo sapiens) (UniProt P25100)
# Sequence (whole entry): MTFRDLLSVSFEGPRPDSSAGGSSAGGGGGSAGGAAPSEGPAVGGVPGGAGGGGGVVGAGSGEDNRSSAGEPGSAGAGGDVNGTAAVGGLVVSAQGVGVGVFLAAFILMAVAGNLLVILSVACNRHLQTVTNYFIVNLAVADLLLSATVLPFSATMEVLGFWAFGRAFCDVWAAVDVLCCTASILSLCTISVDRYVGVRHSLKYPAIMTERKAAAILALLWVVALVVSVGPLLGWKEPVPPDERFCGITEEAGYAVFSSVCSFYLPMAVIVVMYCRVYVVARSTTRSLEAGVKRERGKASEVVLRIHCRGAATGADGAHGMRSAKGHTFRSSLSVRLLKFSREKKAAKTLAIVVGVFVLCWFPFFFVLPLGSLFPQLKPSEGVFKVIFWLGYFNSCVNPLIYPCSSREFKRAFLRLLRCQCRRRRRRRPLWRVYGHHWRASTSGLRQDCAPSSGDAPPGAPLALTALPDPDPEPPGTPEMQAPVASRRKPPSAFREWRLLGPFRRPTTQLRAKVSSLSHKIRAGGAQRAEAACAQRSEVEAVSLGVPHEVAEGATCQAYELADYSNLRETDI
# method: Activation of human alpha-1D-adrenoceptor receptor expressed in rat-1 fibroblasts relative to phenylephrine
# Type: functional
Quick list: Max per entry.
Your answer should be a plain number; it is taken to be in %.

See these solved cases before continuing.
c1ccc(-c2cnco2)c(NCc2c[nH]cn2)c1 :: 51
CSc1ccccc1NCc1c[nH]cn1 :: 36
c1ccc(-c2ccno2)c(OCC2=NCCN2)c1 :: 34
CSc1ccccc1NCC1=NCCN1 :: 55
Oc1ccc2cccc(NCC3=NCCN3)c2c1 :: 53

Let's switch to this compound now.
Entry under test: CCCNC(=O)c1ccccc1NCc1c[nH]cn1 . Its Max was 77

----------
# maps each entry to its EC50
# target-of-assay: Alpha-1A adrenergic receptor (Homo sapiens, UniProt P35348)
# Sequence (P35348 whole entry): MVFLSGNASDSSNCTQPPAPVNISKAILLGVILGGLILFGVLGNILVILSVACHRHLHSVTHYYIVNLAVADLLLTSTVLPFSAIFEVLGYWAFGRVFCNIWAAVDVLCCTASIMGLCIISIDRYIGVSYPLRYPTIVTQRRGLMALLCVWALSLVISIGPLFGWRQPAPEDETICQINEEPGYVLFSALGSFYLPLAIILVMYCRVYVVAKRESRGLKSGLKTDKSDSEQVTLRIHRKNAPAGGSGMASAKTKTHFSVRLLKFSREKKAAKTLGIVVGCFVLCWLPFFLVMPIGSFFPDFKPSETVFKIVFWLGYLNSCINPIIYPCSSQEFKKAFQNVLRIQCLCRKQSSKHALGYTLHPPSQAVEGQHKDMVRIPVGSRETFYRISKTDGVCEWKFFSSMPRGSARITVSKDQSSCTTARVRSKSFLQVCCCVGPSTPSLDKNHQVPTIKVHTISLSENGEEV
# method: Activation of human alpha-1A adrenergic receptor expressed in rat-1 fibroblasts
# number only, unit nM dropped from output

c1ccc(N2CCCCC2)c(NCc2c[nH]cn2)c1 :: 50.1
c1ccc(-c2ccccc2OCc2c[nH]cn2)cc1 :: 15.8
c1ccc(-c2ccno2)c(OCC2=NCCN2)c1 :: 6.31
CCN(CC)C(=O)c1ccccc1NCc1c[nH]cn1 :: 63.1
c1ccc(-c2cnco2)c(NCC2=NCCN2)c1 :: 20
c1ccc(-c2ccno2)c(OCc2c[nH]cn2)c1 :: 158
CSc1ccccc1NCC1=NCCN1 :: 5.01
COc1ccc(S(C)(=O)=O)c(NCC2=NCCN2)c1 :: 12.6
CSc1ccccc1NCc1cnc[nH]1 :: 10
CS(=O)(=O)c1ccccc1NCc1c[nH]cn1 :: 126

Form: molecule = CCCNC(=O)c1ccccc1NCc1c[nH]cn1 ; EC50 = 3.98

Value of EC50 reported for the molecule c1ccc(-c2cnco2)c(NCc2c[nH]cn2)c1 is 50.1

Sample Oc1ccc2cccc(NCC3=NCCN3)c2c1 ; EC50 observed: 6.31

----------
Entries and their measured Max follow.
# target-of-assay: Alpha-1A adrenergic receptor (Homo sapiens) (UniProt P35348)
# Sequence (P35348 whole entry): as above
# method: Activation of human alpha-1A adrenergic receptor expressed in rat-1 fibroblasts; expressed as a percent of the maximal effect of the phenylephrine
# Assay type: functional
// units = %; emit number, no label

Consider the following illustrative entries.
CCCNC(=O)c1ccccc1NCc1c[nH]cn1 :: 100
c1ccc(-c2ccccc2OCc2c[nH]cn2)cc1 :: 102
CS(=O)(=O)c1ccccc1NCc1c[nH]cn1 :: 97
c1ccc(-c2cnco2)c(NCc2c[nH]cn2)c1 :: 120
CS(=O)(=O)c1ccccc1NCC1=NCCN1 :: 105
Oc1ccc2cccc(NCC3=NCCN3)c2c1 :: 110
Oc1ccc2cccc(NCc3c[nH]cn3)c2c1 :: 100
CCN(CC)C(=O)c1ccccc1NCc1c[nH]cn1 :: 114

Per the record, c1ccc(-c2ccno2)c(OCc2c[nH]cn2)c1 has Max of 91

Please fill in: Max reported for c1ccc(-c2ccccc2OCC2=NCCN2)nc1 = 104

Query CSc1ccccc1NCC1=NCCN1 yields Max of 105

Reported Max ( CSc1ccccc1NCc1c[nH]cn1 ) = 94

Entry c1ccc(-c2ccccc2OCC2=NCCN2)cc1 , Max reported as 96

Short answer for c1ccc(-c2cnco2)c(NCC2=NCCN2)c1 : Max was 107

// Max lookup, molecule = c1ccc(-c2ccno2)c(OCC2=NCCN2)c1 , result: 91

The recorded Max for c1ccc(N2CCCCC2)c(NCc2c[nH]cn2)c1 is 95

Briefly, Max measured for c1ccc(N2CCCCC2)c(NCC2=NCCN2)c1 : 114

----------
# target-of-assay: Alpha-1D adrenergic receptor (Homo sapiens)
# Sequence (P25100 whole entry): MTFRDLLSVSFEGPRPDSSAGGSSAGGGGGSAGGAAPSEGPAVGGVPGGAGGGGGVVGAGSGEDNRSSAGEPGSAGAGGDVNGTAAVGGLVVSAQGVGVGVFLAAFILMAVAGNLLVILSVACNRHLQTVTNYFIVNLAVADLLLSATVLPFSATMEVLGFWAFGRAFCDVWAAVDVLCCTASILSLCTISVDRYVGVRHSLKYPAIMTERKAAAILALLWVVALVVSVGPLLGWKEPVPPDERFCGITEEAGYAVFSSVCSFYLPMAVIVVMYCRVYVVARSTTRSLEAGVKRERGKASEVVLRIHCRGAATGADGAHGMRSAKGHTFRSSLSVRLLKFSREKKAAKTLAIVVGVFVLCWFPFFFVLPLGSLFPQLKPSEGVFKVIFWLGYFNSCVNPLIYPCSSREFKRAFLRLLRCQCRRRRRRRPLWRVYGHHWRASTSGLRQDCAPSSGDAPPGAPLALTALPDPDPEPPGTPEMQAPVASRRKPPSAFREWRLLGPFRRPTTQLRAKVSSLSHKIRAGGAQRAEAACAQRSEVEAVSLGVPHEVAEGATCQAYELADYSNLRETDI
# method: Activation of human Alpha-1D adrenergic receptors expressed in rat-1 fibroblasts
pEC50: −log10 of the molar value.
quantity-measured: pEC50

Worked cases, pEC50 given:
c1ccc(-c2ccno2)c(OCC2=NCCN2)c1 :: 7.00
c1ccc(N2CCCCC2)c(NCC2=NCCN2)c1 :: < 5.30
c1ccc(-c2cnco2)c(NCC2=NCCN2)c1 :: < 5.30
Oc1ccc2cccc(NCc3c[nH]cn3)c2c1 :: < 5.30
c1ccc(-c2cnco2)c(NCc2c[nH]cn2)c1 :: < 6.60
c1ccc(-c2ccno2)c(OCc2c[nH]cn2)c1 :: < 4.00
c1ccc(N2CCCCC2)c(NCc2c[nH]cn2)c1 :: < 5.30
CS(=O)(=O)c1ccccc1NCc1c[nH]cn1 :: < 4.00
CS(=O)(=O)c1ccccc1NCC1=NCCN1 :: < 4.00
CCN(CC)C(=O)c1ccccc1OCC1=NCCN1 :: < 4.00

// pEC50 value for CSc1ccccc1NCc1cnc[nH]1 : 7.70

response.value for CCCNC(=O)c1ccccc1NCc1c[nH]cn1 (field: pEC50) = 7.10

----------
# target-of-assay: Alpha-1A adrenergic receptor (Homo sapiens)
quantity-measured: IC50 (nM)
Return type: number; implicit unit nM.

Field IC50 (entry c1ccc(-c2ccccc2OCC2=NCCN2)cc1 ) reads 66.1

----------
# target-of-assay: Alpha-1B adrenergic receptor (Homo sapiens, UniProt P35368)
# Sequence (P35368 whole entry): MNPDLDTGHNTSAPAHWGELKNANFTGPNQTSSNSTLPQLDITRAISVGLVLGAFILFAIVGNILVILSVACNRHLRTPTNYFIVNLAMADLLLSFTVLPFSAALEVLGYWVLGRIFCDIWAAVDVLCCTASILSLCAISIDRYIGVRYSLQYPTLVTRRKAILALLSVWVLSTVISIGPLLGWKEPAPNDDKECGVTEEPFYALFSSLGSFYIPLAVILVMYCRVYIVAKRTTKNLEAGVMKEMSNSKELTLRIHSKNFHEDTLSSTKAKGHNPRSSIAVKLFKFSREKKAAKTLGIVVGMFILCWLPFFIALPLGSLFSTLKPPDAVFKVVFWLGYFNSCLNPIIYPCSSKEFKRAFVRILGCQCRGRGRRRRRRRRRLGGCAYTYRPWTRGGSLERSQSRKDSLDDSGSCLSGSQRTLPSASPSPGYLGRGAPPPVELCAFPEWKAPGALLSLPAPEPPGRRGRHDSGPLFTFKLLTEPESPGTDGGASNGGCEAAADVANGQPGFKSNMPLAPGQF
# method: Activation of human alpha-1B adrenergic receptors expressed in rat-1 fibroblasts
Recorded EC50 for the following compounds

Noted for CS(=O)(=O)c1ccccc1NCC1=NCCN1 : its EC50 reads > 100 µM

// sample c1ccc(-c2cnco2)c(NCC2=NCCN2)c1 , its EC50 was > 5.01 µM

Reported EC50 ( c1ccc(N2CCCCC2)c(NCc2c[nH]cn2)c1 ) = > 5.01 µM
